Attribution: ChEMBL document CHEMBL1122806

# target or test system: Aminopeptidase N (Sus scrofa)
# Sequence (P15145 whole entry): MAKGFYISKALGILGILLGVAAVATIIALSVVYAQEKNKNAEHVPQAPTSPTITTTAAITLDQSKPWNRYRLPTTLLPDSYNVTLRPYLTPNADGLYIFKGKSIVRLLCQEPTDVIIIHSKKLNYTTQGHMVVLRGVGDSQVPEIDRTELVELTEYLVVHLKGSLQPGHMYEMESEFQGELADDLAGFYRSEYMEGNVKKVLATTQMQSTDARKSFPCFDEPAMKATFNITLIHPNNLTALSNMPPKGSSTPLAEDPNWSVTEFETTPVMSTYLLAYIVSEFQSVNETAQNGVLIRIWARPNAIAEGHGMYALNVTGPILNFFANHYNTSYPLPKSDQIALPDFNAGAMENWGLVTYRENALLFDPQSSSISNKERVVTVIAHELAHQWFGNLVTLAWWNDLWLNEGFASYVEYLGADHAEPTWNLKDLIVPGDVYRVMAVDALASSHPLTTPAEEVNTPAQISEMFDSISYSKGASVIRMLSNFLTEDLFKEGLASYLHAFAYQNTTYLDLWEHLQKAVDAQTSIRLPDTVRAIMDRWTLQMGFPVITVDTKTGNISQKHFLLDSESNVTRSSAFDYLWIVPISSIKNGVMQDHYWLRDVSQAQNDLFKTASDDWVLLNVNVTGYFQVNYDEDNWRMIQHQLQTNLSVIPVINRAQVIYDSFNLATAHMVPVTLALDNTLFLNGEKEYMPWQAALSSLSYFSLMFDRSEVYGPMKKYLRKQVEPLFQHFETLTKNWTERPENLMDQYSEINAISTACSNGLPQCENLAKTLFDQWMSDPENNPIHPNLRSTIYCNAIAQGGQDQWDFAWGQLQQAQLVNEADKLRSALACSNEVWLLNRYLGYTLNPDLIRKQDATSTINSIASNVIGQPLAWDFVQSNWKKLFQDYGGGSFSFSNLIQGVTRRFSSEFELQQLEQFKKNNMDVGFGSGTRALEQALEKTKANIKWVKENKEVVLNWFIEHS
# experiment description: Compound was evaluated for the inhibition of Aminopeptidase M (AP-M) and the inhibition constant was determined after preincubating the enzyme and inhibitor
pKi: −log10 of the molar value.
measurement type: pKi

Check out these entries, answers already filled in.
CC(C)C[C@@H](N)CC(=O)N[C@H](C(=O)N[C@H](C(=O)N[C@@H](CC(=O)O)C(=O)O)C(C)C)C(C)C    4.60
CC(C)CC(N)C(O)C(=O)NC(C(=O)NC(CC(=O)O)C(=O)O)C(C)C (centres undefined)    6.03

P: CC(C)C[C@H](NC(=O)[C@@H](O)[C@H](N)CC(C)C)C(=O)O
Q: CC(C)CCNC(=O)[C@@H](NC(=O)[C@@H](NC(=O)[C@H](O)[C@@H](N)CC(C)C)C(C)C)C(C)C
Please let me know which one, P or Q , has a lower measured pKi value. Let me know the label of the one you choose.
P
(P: 4.93, Q: 6.74)
